The values you see were collected from patent US20210269542A1.

- target-under-test: T1, cyno GITR-Fc (cynomolgus monkey)
- T1 construct: also called cGITR; cynomolgus GITR
- T1 chain: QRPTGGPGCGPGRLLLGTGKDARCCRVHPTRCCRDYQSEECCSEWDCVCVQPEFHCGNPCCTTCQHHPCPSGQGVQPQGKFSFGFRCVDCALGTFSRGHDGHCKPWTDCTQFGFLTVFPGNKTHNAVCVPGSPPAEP
- test-method-notes: BLI Octet RED384, ABP on AHQ sensor, 100 nM antigen, single concentration;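 also: association and dissociation each tracked over 180 s, with dissociation run in antigen-free buffer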
experimental-readout: Kd (nM)
Numbers only, in nM.

Solved cases below.
# binder, Kd (nM)
measured = [
    ("ABP39 (antibody, human IgG1, kappa, N297A, V domains shown, IgG1 N297A, bivalent; also called non-TM ABP corresponding to ABP6) VH: QVQLQESGPGLVKPSETLSLTCAVSGYSISSGAGWGWIRQPPGKGLEWIGLIVHSGSTYYNPSLKSRVTISVDTSKNQFSLKLSSVTAADTAVYYCVLESVRGYGDYGGHHAFDIWGQGTMVTVSS VL: DIQMTQSPSSLSASVGDRVTITCRASQSISSYLNWYQQKPGKAPKLLIYAADSLQSGVPSRFSGSGSGTDFTLTISSLQPEDFATYYCQQEYNTPPTFGGGTKVEIKR", 8.2),
    ("ABP38 (antibody, human IgG1, kappa, N297A, V domains shown, IgG1 N297A, bivalent; also called non-TM ABP corresponding to ABP4/5) VH: QVQLQESGPGLVKPSETLSLTCAVSGYSISSGAGWGWIRQPPGKGPEWIGLIVHSGSTYYNPSLKSRVTISVDTSKNQFSLKLSSVTAADTAVYYCVLESVRGYGDYGGHHAFDIWGQGTMVTVSS VL: DIQMTQSPSSLSASVGDRVTITCRASKSIDSYLNWYQQKPGKAPKLLIYAASSLQSGVPSRFSGSGSGTDFTLTISSLQPEDFATYYCQQEYNTPPTFGGGTKVEIKR", 11.1),
    ("ABP40 (antibody, human IgG1, kappa, N297A, V domains shown, IgG1 N297A, bivalent; also called non-TM ABP corresponding to ABP7) VH: QVQLQESGPGLVKPSETLSLTCAVSGYSISSEYMWGWIRQPPGKGLEWIGLIYHSGKTYYNPSLKSRVTISVDTSKNQFSLKLSSVTAADTAVYYCAREADRGYGDYGGHHAFDIWGQGTMVTVSS VL: DIQMTQSPSSLSASVGDRVTITCRASQSINSYLNWYQQKPGKAPKLLIYAASSLDSGVPSRFSGSGSGTDFTLTISSLQPEDFATYYCQQEYNTPPTFGGGTKVEIKR", 4.9),
]

# Kd (binder: ABP16 (antibody, human IgG1, kappa, N297A, V domains shown) VH: QVQLVQSGAEVKKPGSSVKVSCKASGGTFSSYAISWVRQAPGQGLEWMGGIIPISGFTNYAQKFQGKVTITADESTSTAYMELSSLRSEDTAVYYCAREGGHYYSGWPYWGQGTLVTVSS VL: EIVLTQSPATLSLSPGERATLSCRASQSVSSYLAWYQQKPGQAPRLLIYDASNRATGIPARFSGSGSGTDFTLTISSLEPEDFAVYYCQQRLVFPPTFGGGTKVEIKR ) is 5.4
